B1: TPR 5TU (parent)
chain: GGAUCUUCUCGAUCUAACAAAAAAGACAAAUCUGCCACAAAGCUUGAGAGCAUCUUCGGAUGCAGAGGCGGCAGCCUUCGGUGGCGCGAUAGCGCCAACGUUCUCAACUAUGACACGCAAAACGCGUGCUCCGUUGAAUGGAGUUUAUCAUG

variants of: B1; assay: polymerase ribozyme fitness, log enrichment relative to wild type (log ratio); higher = more active; in vitro selection for triplet polymerase activity
Fewer inactive variants are shown than the library holds.
Assign polymerase ribozyme fitness (log ratio) to each entry below.
Answers are plain numbers.

[
  {
    "VARIANT_STRING": "U55A G62A C87U C103U",
    "polymerase ribozyme fitness (log ratio)": -1.44
  },
  {
    "VARIANT_STRING": "A49U A142C",
    "polymerase ribozyme fitness (log ratio)": -1.43
  },
  {
    "VARIANT_STRING": "A138U A147U",
    "polymerase ribozyme fitness (log ratio)": -3.38
  },
  {
    "VARIANT_STRING": "C63A C85G C95U C118U",
    "polymerase ribozyme fitness (log ratio)": -2.65
  },
  {
    "VARIANT_STRING": "C69A G84A A89G U146C",
    "polymerase ribozyme fitness (log ratio)": -2.59
  }
]

Required: polymerase ribozyme fitness (log ratio), one value per variant below.
1. A20G C87U U148A
2. C96U C105A
3. A22C C114A
4. U7A C75U G94C A122G U145A
5. C18U U31C U56G A138U G140A
6. A19G G94A

Result:
1: -3.21; 2: -0.493; 3: -3.5; 4: -3.63; 5: -4; 6: -1.06
